Provide the reported AUC0-∞ of each item.
Experiment: In vivo pharmacokinetic experiment in mice
Details: C57 mice, 20 mg/kg p.o., plasma
Method: Healthy male C57 mice were randomly divided into groups with 3 mice in each group, and the test compounds were administrated intragastrically or by intravenous injection. See Table 6 below for specific arrangements: Each test compound was dissolved in physiological saline to prepare a certain concentration of solution for administration. One day before administration, the mice were fasted and allowed to drink freely for 12-14 h. The mice were fed 4 h after administration. […]
Unit ngh/mL implied. Number only.

Lab note: Cl.N[C@@]1(c2ccccc2Cl)CCC[C@@H](O)C1=O [(2R,6R)-HNK, (2R, 6R)-HNK, reference compound] gave AUC0-∞ of 5599

Lab note: Cl.N[C@]1(c2ccc(C(F)(F)F)cc2)CCC[C@H](O)C1=O [Compound 51] gave AUC0-∞ of 17877

Lab note: Cl.N[C@@]1(c2ccc(C(F)(F)F)cc2)CCC[C@@H](O)C1=O [Compound 50] gave AUC0-∞ of 13624

Lab note: Cl.N[C@@]1(c2cccc(OC(F)(F)F)c2F)CCC[C@@H](O)C1=O [Compound 64] gave AUC0-∞ of 12816

----------
Test: In vivo pharmacokinetic experiment in rats
Settings: male, rat, po; SD rats, 10 mg/kg p.o., plasma
test readout: Cmax

Lab note: Cl.N[C@@]1(c2ccc(C(F)(F)F)cc2)CCC[C@@H](O)C1=O gave Cmax of 3110 ng/mL

----------
Test: In vivo pharmacokinetic experiment in mice
Details: male, mouse, po; C57 mice, 20 mg/kg p.o., plasma
test readout: MRT (h)
Unit h implied. Number only.

Lab note: Cl.N[C@@]1(c2ccc(C(F)(F)F)cc2)CCC[C@@H](O)C1=O [Compound 50] gave MRT of 2.49

Lab note: Cl.N[C@]1(c2ccc(C(F)(F)F)cc2)CCC[C@H](O)C1=O [Compound 51] gave MRT of 3.59

Lab note: Cl.N[C@@]1(c2cccc(OC(F)(F)F)c2F)CCC[C@@H](O)C1=O [Compound 64] gave MRT of 2.08

Lab note: Cl.N[C@@]1(c2ccccc2Cl)CCC[C@@H](O)C1=O [(2R,6R)-HNK, (2R, 6R)-HNK, reference compound] gave MRT of 0.875

----------
Assay: In vivo pharmacokinetic experiment in rats
Settings: male, rat, iv; SD rats, 5 mg/kg i.v., plasma
test readout: MRT (h)
Unit h implied. Number only.

Lab note: Cl.N[C@]1(c2ccc(C(F)(F)F)cc2)CCC[C@H](O)C1=O gave MRT of 6.15

----------
Test: In vivo pharmacokinetic experiment in mice
Conditions: male, mouse, po; C57 mice, 20 mg/kg p.o., plasma
test readout: Cmax (ng/mL)
Unit ng/mL implied. Number only.

Lab note: Cl.N[C@@]1(c2cccc(OC(F)(F)F)c2F)CCC[C@@H](O)C1=O gave Cmax of 11900

Lab note: Cl.N[C@]1(c2ccc(C(F)(F)F)cc2)CCC[C@H](O)C1=O gave Cmax of 7520

Lab note: Cl.N[C@@]1(c2ccccc2Cl)CCC[C@@H](O)C1=O [(2R,6R)-HNK, (2R, 6R)-HNK, reference compound] gave Cmax of 7180

Lab note: Cl.N[C@@]1(c2ccc(C(F)(F)F)cc2)CCC[C@@H](O)C1=O gave Cmax of 8100

From: patent US12351565B2
